These entries and their values trace back to patent US20220378706A1.

Experiment: Multiple ascending dose study: plasma pharmacokinetics
Type: in vivo
Conditions: human, po, 200 mg, Day 1, 200 mg QD oral, read-out: Cmax Mean (SD)
recorded-endpoint: Cmax (µg/mL)

smiles-text: COc1ncc(C)c(-c2ccc3c(c2)[nH]c(=O)c2cnn([C@H]4CCOC4)c23)c1C
reported-result: 0.74

====

Test: Multiple ascending dose study: plasma pharmacokinetics
Assay type: in vivo
Settings: human, po, 25 mg, Day 14, 25 mg QD oral, read-out: AUC(0-24 h) Mean (SD)

smiles-text: COc1ncc(C)c(-c2ccc3c(c2)[nH]c(=O)c2cnn([C@H]4CCOC4)c23)c1C
AUC(0-t) / ng·h/mL: 5210

====

Assay: Single dose clinical study: plasma Compound A pharmacokinetics
Type: in vivo, human
Settings: human, plasma, po, 400 mg, plasma, Non-Japanese Subjects (Parts A,B), single oral 400 mg; read-out: t1/2 Mean (SD) (converted)

molecule: COc1ncc(C)c(-c2ccc3c(c2)[nH]c(=O)c2cnn([C@H]4CCOC4)c23)c1C [Compound A]
half-life, h: 34.5

====

Test: Multiple ascending dose study: plasma pharmacokinetics
Format: in vivo
Details: human, po, 200 mg, Day 1, 200 mg QD oral, read-out: AUC(0-24 h) Median
recorded-endpoint: AUC(0-t) (ng·h/mL)

smiles-text: COc1ncc(C)c(-c2ccc3c(c2)[nH]c(=O)c2cnn([C@H]4CCOC4)c23)c1C
unit-descriptor: ng·h/mL
reported-result: 10400

====

Experiment: Multiple ascending dose study: plasma pharmacokinetics
Format: in vivo
Details: human, po, 50 mg, Part C, 50 mg oral, read-out: AUC (0-24 h) Median
recorded-endpoint: AUC(0-t) (ng·h/mL)

compound: COc1ncc(C)c(-c2ccc3c(c2)[nH]c(=O)c2cnn([C@H]4CCOC4)c23)c1C [Compound A]
reported-result: 10600

====

Test: Multiple ascending dose study: plasma pharmacokinetics
Assay type: in vivo
Details: human, po, 400 mg, Day 14, 400 mg QD oral, Non-Japanese, read-out: AUC(0-24 h) Median

smiles-text: COc1ncc(C)c(-c2ccc3c(c2)[nH]c(=O)c2cnn([C@H]4CCOC4)c23)c1C
AUC(0-t) [ng·h/mL]: 43900

====

Assay: Multiple ascending dose study: plasma pharmacokinetics
Type: in vivo
Details: human, po, 400 mg, Day 14, 400 mg QD oral, Japanese, read-out: AUC(0-inf) Median
recorded-endpoint: AUC(0-inf) (µg·h/mL)

smiles-text: COc1ncc(C)c(-c2ccc3c(c2)[nH]c(=O)c2cnn([C@H]4CCOC4)c23)c1C
recorded-endpoint: AUC(0-inf)
reported-result: 120

====

Test: Single dose clinical study: plasma Compound A pharmacokinetics
Assay type: in vivo, human
Details: human, plasma, po, 100 mg, plasma, Japanese Subjects (Part D), single oral 100 mg; read-out: t1/2 Mean (SD) (converted)
recorded-endpoint: half-life (h)

smiles-text: COc1ncc(C)c(-c2ccc3c(c2)[nH]c(=O)c2cnn([C@H]4CCOC4)c23)c1C
recorded-endpoint: half-life
reported-result: 23.9

====

Assay: Multiple ascending dose study: plasma pharmacokinetics
Type: in vivo
Details: human, po, 25 mg, Day 1, 25 mg QD oral, read-out: Cmax Median

compound: COc1ncc(C)c(-c2ccc3c(c2)[nH]c(=O)c2cnn([C@H]4CCOC4)c23)c1C [Compound A]
Cmax [ng/mL]: 136

====

Test: Multiple ascending dose study: plasma pharmacokinetics
Type: in vivo
Conditions: human, po, 100 mg, Day 1, 100 mg QD oral, read-out: tmax Median
recorded-endpoint: Tmax (h)

compound: COc1ncc(C)c(-c2ccc3c(c2)[nH]c(=O)c2cnn([C@H]4CCOC4)c23)c1C [Compound A]
reported-result: 2.53

====

Test: Single dose clinical study: plasma Compound A pharmacokinetics
Format: in vivo, human
Conditions: human, plasma, po, 25 mg, plasma, Japanese Subjects (Part D), single oral 25 mg; read-out: tmax Median

compound: COc1ncc(C)c(-c2ccc3c(c2)[nH]c(=O)c2cnn([C@H]4CCOC4)c23)c1C [Compound A]
Tmax, h: 2.08

====

Assay: Single dose clinical study: plasma Compound A pharmacokinetics
Format: in vivo, human
Conditions: human, plasma, po, 400 mg, plasma, Non-Japanese Subjects (Parts A,B), single oral 400 mg; read-out: Cmax GM (% CV)
recorded-endpoint: Cmax (ng/mL)

molecule: COc1ncc(C)c(-c2ccc3c(c2)[nH]c(=O)c2cnn([C@H]4CCOC4)c23)c1C [Compound A]
reported-result: 827

====

Assay: Single dose clinical study: plasma Compound A pharmacokinetics
Type: in vivo, human
Conditions: human, plasma, oral, 100 mg, non-Japanese, 100 mg, without weight as covariate; read-out: Cmax Geometric LS Means Reference
Description: This was a single center, single dose, randomized, double blind, placebo controlled study in healthy subjects. It consisted of 4 parts: Parts A, B, C, and D. Each of the four study parts had 2 phases: Prerandomization Phase and Randomization Phase. The Prerandomization Phase lasted up to 30 days and consisted of a Screening Period and a Baseline Period, during which each subject's study eligibility was determined and baseline assessments were performed. […]

smiles-text: COc1ncc(C)c(-c2ccc3c(c2)[nH]c(=O)c2cnn([C@H]4CCOC4)c23)c1C
Cmax [ng/mL]: 373

====

Experiment: Multiple ascending dose study: plasma pharmacokinetics
Type: in vivo
Details: human, po, 50 mg, Part C, 50 mg oral, read-out: Cmax Median
recorded-endpoint: Cmax (ng/mL)

smiles-text: COc1ncc(C)c(-c2ccc3c(c2)[nH]c(=O)c2cnn([C@H]4CCOC4)c23)c1C
reported-result: 590

====

Assay: Single dose clinical study: plasma Compound A pharmacokinetics
Format: in vivo, human
Conditions: human, plasma, po, 100 mg, plasma, healthy adults (Parts A,B), single oral 100 mg, fasted; read-out: AUC(0-24 h) GM
Procedure: This was a single center, single dose, randomized, double blind, placebo controlled study in healthy subjects. It consisted of 4 parts: Parts A, B, C, and D. Each of the four study parts had 2 phases: Prerandomization Phase and Randomization Phase. The Prerandomization Phase lasted up to 30 days and consisted of a Screening Period and a Baseline Period, during which each subject's study eligibility was determined and baseline assessments were performed. […]

smiles-text: COc1ncc(C)c(-c2ccc3c(c2)[nH]c(=O)c2cnn([C@H]4CCOC4)c23)c1C
AUC(0-t): 5730 ng·h/mL

====

Test: Single dose clinical study: plasma Compound A pharmacokinetics
Type: in vivo, human
Settings: human, plasma, po, 1200 mg, plasma, healthy adults (Parts A,B), single oral 1200 mg, fasted; read-out: AUC(0-30 h) GM

smiles-text: COc1ncc(C)c(-c2ccc3c(c2)[nH]c(=O)c2cnn([C@H]4CCOC4)c23)c1C
unit-descriptor: ng·h/mL
AUC(0-t): 34800

====

Assay: Single dose clinical study: plasma Compound A pharmacokinetics
Assay type: in vivo, human
Details: human, plasma, oral, 400 mg, non-Japanese, 400 mg, without weight as covariate; read-out: AUC(O-inf) Geometric LS Means Reference
recorded-endpoint: AUC (ng·h/mL)

smiles-text: COc1ncc(C)c(-c2ccc3c(c2)[nH]c(=O)c2cnn([C@H]4CCOC4)c23)c1C
recorded-endpoint: AUC
unit-descriptor: ng·h/mL
reported-result: 35800

====

Assay: Single dose clinical study Part B: CSF Compound A pharmacokinetics
Format: in vivo
Conditions: human, CSF and plasma, po, 200 mg, healthy adults Part B, single oral 200 mg, fasted; read-out: CSF: plasma Cmax ratio (expressed as %) GM (% CV)

smiles-text: COc1ncc(C)c(-c2ccc3c(c2)[nH]c(=O)c2cnn([C@H]4CCOC4)c23)c1C
Kp: 0.0214

====

Test: Single dose clinical study: plasma Compound A pharmacokinetics
Type: in vivo, human
Conditions: human, plasma, po, 800 mg, plasma, healthy adults (Parts A,B), single oral 800 mg, fasted; read-out: t1/2 Mean (converted)

smiles-text: COc1ncc(C)c(-c2ccc3c(c2)[nH]c(=O)c2cnn([C@H]4CCOC4)c23)c1C
half-life / h: 25.2

====

Assay: Multiple ascending dose study: plasma pharmacokinetics
Format: in vivo
Details: human, po, 100 mg, Day 1, 100 mg QD oral, read-out: AUC(0-24 h) Mean (SD)
recorded-endpoint: AUC(0-t) (ng·h/mL)

smiles-text: COc1ncc(C)c(-c2ccc3c(c2)[nH]c(=O)c2cnn([C@H]4CCOC4)c23)c1C
recorded-endpoint: AUC(0-t)
reported-result: 5250

====

Assay: Single dose clinical study Part B: CSF Compound A pharmacokinetics
Format: in vivo
Details: human, CSF and plasma, po, 50 mg, healthy adults Part B, single oral 50 mg, fasted; read-out: CSF: plasma Cmax ratio (expressed as %) GM (% CV)

smiles-text: COc1ncc(C)c(-c2ccc3c(c2)[nH]c(=O)c2cnn([C@H]4CCOC4)c23)c1C
Kp: 0.02

====

Experiment: Single dose clinical study: plasma Compound A pharmacokinetics
Assay type: in vivo, human
Conditions: human, plasma, po, 75 mg, plasma, healthy adults (Parts A,B), single oral 75 mg, fasted; read-out: AUC(0-72 h) GM

smiles-text: COc1ncc(C)c(-c2ccc3c(c2)[nH]c(=O)c2cnn([C@H]4CCOC4)c23)c1C
AUC(0-t) / ng·h/mL: 7880
